biological target: Dihydroorotate dehydrogenase (quinone), mitochondrial (Homo sapiens); assay: Inhibition of C-terminal His6-tagged recombinant human DHODH (29 to 395 residues) N-terminally truncated soluble domain extracted from Escherichia coli phage resistant BL21-DE3 using CoQD/DHA/DCIP as substrates
Sequence (Q02127 whole entry, the tested form may be a part): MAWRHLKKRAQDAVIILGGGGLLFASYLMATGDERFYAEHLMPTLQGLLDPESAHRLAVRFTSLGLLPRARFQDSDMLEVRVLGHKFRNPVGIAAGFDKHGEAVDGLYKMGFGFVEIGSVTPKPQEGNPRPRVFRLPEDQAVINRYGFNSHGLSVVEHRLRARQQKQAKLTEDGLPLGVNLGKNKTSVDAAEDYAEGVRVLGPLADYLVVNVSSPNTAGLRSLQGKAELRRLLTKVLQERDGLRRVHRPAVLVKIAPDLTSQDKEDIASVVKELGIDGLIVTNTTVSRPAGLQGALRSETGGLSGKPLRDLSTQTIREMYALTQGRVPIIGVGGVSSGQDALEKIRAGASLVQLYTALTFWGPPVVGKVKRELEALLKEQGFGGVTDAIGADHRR
pIC50: −log10 of the molar value.
OUTCOME MEASURE: pIC50

- Cn1nc2c(=O)n(C3CC3)cnc2c1[C@](O)(c1ccc(C(F)(F)F)c(Cl)c1)C(F)(F)F: 5.19

1. CCn1cc(C2CC2)c2c(CN3CCC(F)(F)CC3(C)C)n(C)nc2c1=O
2. Cn1nc2c(=O)n(C3CC3)cc(Cl)c2c1Cc1ccc(C(F)(F)F)nc1
Which of these two has the smaller recorded pIC50: 1 or 2 ? Your answer should be the label attached to the chosen record.
1
(1: 4.24, 2: 4.80)
